- Study target: T1, human chemokine (C-C motif) receptor 8 (CCR8) (human, UniProt P51685 1-355)
- T1 construct: On human peripheral blood lymphocytes / PBMC (native) or on human CCR8 GFP-transfected Ba/F3 cells; also called hCCR8; human CCR8
- T1 sequence (P51685 whole entry): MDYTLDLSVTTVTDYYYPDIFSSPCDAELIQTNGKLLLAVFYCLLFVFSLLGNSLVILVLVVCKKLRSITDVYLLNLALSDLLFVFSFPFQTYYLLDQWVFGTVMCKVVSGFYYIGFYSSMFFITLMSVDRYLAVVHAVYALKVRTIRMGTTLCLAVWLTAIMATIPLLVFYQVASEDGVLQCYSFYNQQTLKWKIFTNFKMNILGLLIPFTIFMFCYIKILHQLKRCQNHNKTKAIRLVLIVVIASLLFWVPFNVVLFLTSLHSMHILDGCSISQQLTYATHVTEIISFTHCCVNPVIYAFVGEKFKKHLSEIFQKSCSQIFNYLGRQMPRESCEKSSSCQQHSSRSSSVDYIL
- Protocol: flow cytometry blocking, PBMC CCR8+ CD4+ cells; competitor PE-AB14 (its MFI is read)
Attribute measured: % Blocking (%)

{"Binder": "AB8 (antibody, V domains shown, Hybridoma monoclonal; also called antibody 8; clone 8) VH: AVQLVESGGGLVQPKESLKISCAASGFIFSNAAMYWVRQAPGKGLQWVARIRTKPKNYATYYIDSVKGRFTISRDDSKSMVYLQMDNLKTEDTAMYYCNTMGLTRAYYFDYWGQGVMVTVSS VL: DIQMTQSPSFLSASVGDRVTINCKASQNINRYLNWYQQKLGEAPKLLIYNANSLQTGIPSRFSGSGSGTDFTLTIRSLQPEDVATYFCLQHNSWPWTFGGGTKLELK", "Uom": "%", "Reported value": 6.78}
{"Binder": "AB11 (antibody, V domains shown, Hybridoma monoclonal; also called antibody 11; clone 11) VH: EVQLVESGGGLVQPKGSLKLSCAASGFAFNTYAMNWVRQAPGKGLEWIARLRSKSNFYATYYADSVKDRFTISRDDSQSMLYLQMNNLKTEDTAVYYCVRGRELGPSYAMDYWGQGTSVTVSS VL: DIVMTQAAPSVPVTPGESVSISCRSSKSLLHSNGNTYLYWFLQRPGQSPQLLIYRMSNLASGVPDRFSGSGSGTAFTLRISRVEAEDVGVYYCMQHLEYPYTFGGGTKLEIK", "Uom": "%", "Reported value": -1190}

Every entry's value here was drawn from patent US20240360228A1.
